# System: S. aureus SA0736
# experimental-details: microbe, parasite or virus in culture
# measurement-setup: Staphylococcus aureus, SA0736, read-out: MIC values
Collected MIC values appear next to each entry.
# unit: µg/mL | format: bare number

Below are worked cases with known answers.
INSERT INTO results (compound, reading_unit, measured_value) VALUES
  ('CCO/N=C(\C(=O)N[C@@H]1C(=O)N2C(C(=O)[O-])=C(Sc3nc(-c4cc[n+](C)cc4)cs3)CS[C@H]12)c1nsc(N)n1 [Ceftaroline]', 'µg/mL', 1),
  ('CCC[C@@H]1C[C@@H](C(=O)N[C@@H]([C@H]2O[C@H](SC)[C@H](O)[C@@H](O)[C@H]2O)[C@H](C)Cl)N(C)C1 [Clindamycin]', 'µg/mL', 0.06);

Consider now this further compound.
Assay S. aureus SA0736, sample C/C(=C\C(=O)OCCCCCCCCC(=O)O)C[C@@H]1OC[C@H](C[C@@H]2O[C@H]2[C@@H](C)[C@H](C)O)[C@@H](O)[C@H]1O [Mupirocin] , MIC read: 1
